# System: LNCaP
# assay notes: Anti-proliferative activity against human LNCAP cells measured after 96 hrs by MTT assay
# Assay type: functional
measured parameter: GI50 (µM)
Numeric answer only, unit µM assumed.

INSERT INTO assay_data (smiles_text, observed_measurement) VALUES
  ('CC1CCN(C(=O)[C@@]2(C)C(=O)C(C(F)(F)F)=C[C@]3(C)[C@H]4C(=O)C=C5[C@@H]6[C@@H](C)[C@H](C)CC[C@]6(C)CC[C@@]5(C)[C@]4(C)CC[C@@H]23)CC1', 4.71);

# input Indicate its recorded GI50; the molecule in question is C[C@H]1[C@H](C)CC[C@]2(C)CC[C@]3(C)C(=CC(=O)[C@@H]4[C@@]5(C)C=C(I)C(=O)[C@](C)(C(=O)N6CCNCC6)[C@@H]5CC[C@]43C)[C@H]12
# output 2.98

# input Indicate its recorded GI50; the molecule in question is C[C@H]1[C@H](C)CC[C@]2(C)CC[C@]3(C)C(=CC(=O)[C@@H]4[C@@]5(C)C=C(C#N)C(=O)[C@](C)(C(=O)OCc6ccccc6)[C@@H]5CC[C@]43C)[C@H]12
# output 1.66

# input Indicate its recorded GI50; the molecule in question is C[C@H]1[C@H](C)CC[C@]2(C)CC[C@]3(C)C(=CC(=O)[C@@H]4[C@@]5(C)C=C(C(F)(F)F)C(=O)[C@](C)(C(=O)O)[C@@H]5CC[C@]43C)[C@H]12
# output 4.26
